These measurements were taken from ChEMBL document CHEMBL5634090.

procedure-details: Selectivity index, ratio of CC50 for cytotoxicity against mouse NCTC clone 929 cells to MIC for antibacterial activity against Klebsiella pneumoniae ATCC 14581
Type: toxicity, cell-based
particulars: read-out: Selectivity Index
recorded-metric: selectivity ratio
Answer using only a numeral; do not append any unit.

The reported value for CCCCCCCN1c2ccccc2Sc2ccc(OCC(=O)N[C@@H](CCCNC(=N)N)C(=O)N[C@@H](CCCNC(=N)N)C(N)=O)cc21 in terms of selectivity ratio is 8

----------
procedure-details: Selectivity index, ratio of CC50 for cytotoxicity against mouse NCTC clone 929 cells to MIC for antibacterial activity against methicillin resistant Staphylococcus aureus N315
Format: toxicity, cell-based
particulars: read-out: Selectivity Index
recorded-metric: selectivity ratio
Number only, no unit.

Lab note: CCCCCCCN1c2ccccc2Sc2ccc(OCC(=O)N[C@@H](CCCNC(=N)N)C(=O)N[C@@H](CCCNC(=N)N)C(N)=O)cc21 gave selectivity ratio of 8

----------
procedure-details: Cytotoxicity against HEK293 cells assessed as cell survival rate at 25 ug/ml by CCK-8 assay relative to control
Format: toxicity, cell-based
particulars: human, at 25 µg/mL, read-out: Activity
recorded-metric: viability at 25 ug/ml (%)
I only need the number, in %, no unit after it.

// viability at 25 ug/ml value for CCCCCCCN1c2ccccc2Sc2ccc(OCC(=O)N[C@@H](CCCNC(=N)N)C(=O)N[C@@H](CCCNC(=N)N)C(N)=O)cc21 : 74.4

----------
procedure-details: Selectivity index, ratio of CC50 for cytotoxicity against HEK293 cells to MIC for antibacterial activity against Klebsiella pneumoniae ATCC 14581
Type: toxicity, cell-based
particulars: human, read-out: Selectivity Index
recorded-metric: selectivity ratio
Reply: number alone, nothing else.

The recorded selectivity ratio for CCCCCCCN1c2ccccc2Sc2ccc(OCC(=O)N[C@@H](CCCNC(=N)N)C(=O)N[C@@H](CCCNC(=N)N)C(N)=O)cc21 is 8

----------
procedure-details: Cytotoxicity against mouse NCTC clone 929 cells assessed as cell survival rate at 6.25 ug/ml by CCK-8 assay relative to control
Assay type: toxicity, cell-based
particulars: NCTC clone 929 (L929) cells, at 6.25 µg/mL, read-out: Activity
recorded-metric: viability at 6.25 ug/ml

Value of measured viability at 6.25 ug/ml for the entry CCCCCCCN1c2ccccc2Sc2ccc(OCC(=O)N[C@@H](CCCNC(=N)N)C(=O)N[C@@H](CCCNC(=N)N)C(N)=O)cc21 : 91.2%

----------
Test system: Staphylococcus aureus
procedure-details: Antibacterial activity against methicillin resistant Staphylococcus aureus NCTC 10442 by microbroth dilution assay
Type: functional
# key: entry, value: MIC
Report the value in µg/mL with no unit label.

CCCCCN1c2ccccc2Sc2ccc(OCC(=O)N[C@@H](CCCNC(=N)N)C(=O)OC)cc21: 6.25

Summary for this compound, CCCCCOc1ccc2c(c1)N(CCCCCCCCN)c1ccccc1S2 : MIC is 3.12

Per the records, this compound ( CC(C)=CCOc1ccc2c(c1)N(CCCCNC(=N)N)c1ccccc1S2 ) has MIC equal to 0.78

Documented MIC of CCCCCOc1ccc2c(c1)N(CCCCCCN(CC)CC)c1ccccc1S2 : 3.12

----------
procedure-details: Selectivity index, ratio of CC50 for cytotoxicity against HEK293 cells to MIC for antibacterial activity against methicillin resistant Staphylococcus aureus NCTC 10442
Type: toxicity, cell-based
particulars: human, read-out: Selectivity Index
recorded-metric: selectivity ratio
Output: the number by itself.

For record CCCCCCCN1c2ccccc2Sc2ccc(OCC(=O)N[C@@H](CCCNC(=N)N)C(=O)N[C@@H](CCCNC(=N)N)C(N)=O)cc21 the listed selectivity ratio is 8

----------
Measured MIC by item
Tested on: Staphylococcus aureus
procedure-details: Antibacterial activity against Staphylococcus aureus ATCC 29213 by microbroth dilution assay
Assay type: functional
The answer is to be given in µg/mL; state only the numeric part.

Example results:
CCCCCCCCCN1c2ccccc2Sc2ccc(OCC(=O)N[C@@H](CCCNC(=N)N)C(=O)N[C@@H](CCCNC(=N)N)C(=O)OC)cc21: 1.56
CCCCCOc1ccc2c(c1)N(CCCCN)c1ccccc1S2: 3.12
CC(C)=CCOc1ccc2c(c1)N(CCCCNC(=N)N)c1ccccc1S2: 1.56

Short answer on Staphylococcus aureus for CCCCCCCCCOc1ccc2c(c1)N(CCCCN)c1ccccc1S2 , MIC: 3.12

Reported Staphylococcus aureus MIC for item CCCCCOc1ccc2c(c1)N(CCCCN(CC)CC)c1ccccc1S2 was 6.25

Query CCn1cc(C(=O)O)c(=O)c2cc(F)c(N3CCNCC3)cc21 on Staphylococcus aureus; MIC returned: 1.56

Readout MIC for CCCCCCCOc1ccc2c(c1)N(CCCCN)c1ccccc1S2 , test system Staphylococcus aureus, was 3.12

----------
procedure-details: Selectivity index, ratio of CC50 for cytotoxicity against mouse NCTC clone 929 cells to MIC for antibacterial activity against Klebsiella pneumoniae ATCC 10031
Type: toxicity, cell-based
particulars: read-out: Selectivity Index
recorded-metric: selectivity ratio
A bare number is all that is needed in reply.

selectivity ratio in this record for CCCCCCCN1c2ccccc2Sc2ccc(OCC(=O)N[C@@H](CCCNC(=N)N)C(=O)N[C@@H](CCCNC(=N)N)C(N)=O)cc21 : 8

----------
procedure-details: Selectivity index, ratio of CC50 for cytotoxicity against HEK293 cells to MIC for antibacterial activity against Klebsiella pneumoniae ATCC 10031
Format: toxicity, cell-based
particulars: human, read-out: Selectivity Index
recorded-metric: selectivity ratio
Respond numerically, and do not add a unit to the figure.

What the record says about CCCCCCCN1c2ccccc2Sc2ccc(OCC(=O)N[C@@H](CCCNC(=N)N)C(=O)N[C@@H](CCCNC(=N)N)C(N)=O)cc21 : selectivity ratio is 8

----------
procedure-details: Cytotoxicity against HEK293 cells assessed as cell survival rate at 50 ug/ml by CCK-8 assay relative to control
Format: toxicity, cell-based
particulars: human, at 50 µg/mL, read-out: Activity
recorded-metric: viability at 50 ug/ml (%)
Kindly provide the numeric value in % only, without the unit symbol.

The reported viability at 50 ug/ml of the compound CCCCCCCN1c2ccccc2Sc2ccc(OCC(=O)N[C@@H](CCCNC(=N)N)C(=O)N[C@@H](CCCNC(=N)N)C(N)=O)cc21 was 56

----------
procedure-details: Cytotoxicity against mouse NCTC clone 929 cells assessed as cell survival rate at 12.5 ug/ml by CCK-8 assay relative to control
Assay type: toxicity, cell-based
particulars: NCTC clone 929 (L929) cells, at 12.5 µg/mL, read-out: Activity
recorded-metric: viability at 12.5 ug/ml (%)
Enter your answer as a number in %; do not include the unit.

Recorded result, CCCCCCCN1c2ccccc2Sc2ccc(OCC(=O)N[C@@H](CCCNC(=N)N)C(=O)N[C@@H](CCCNC(=N)N)C(N)=O)cc21 , viability at 12.5 ug/ml: 70.8

----------
procedure-details: Selectivity index, ratio of CC50 for cytotoxicity against HEK293 cells to MIC for antibacterial activity against methicillin resistant Staphylococcus aureus N315
Assay type: toxicity, cell-based
particulars: human, read-out: Selectivity Index
recorded-metric: selectivity ratio
Form rule: numeric answer, no unit written next to it.

Looking up CCCCCCCN1c2ccccc2Sc2ccc(OCC(=O)N[C@@H](CCCNC(=N)N)C(=O)N[C@@H](CCCNC(=N)N)C(N)=O)cc21 , I see its selectivity ratio listed as 8

----------
procedure-details: Cytotoxicity against HEK293 cells assessed as cell survival rate at 12.5 ug/ml by CCK-8 assay relative to control
Type: toxicity, cell-based
particulars: human, at 12.5 µg/mL, read-out: Activity
recorded-metric: viability at 12.5 ug/ml (%)
Number in %, nothing else.

Reported viability at 12.5 ug/ml ( CCCCCCCN1c2ccccc2Sc2ccc(OCC(=O)N[C@@H](CCCNC(=N)N)C(=O)N[C@@H](CCCNC(=N)N)C(N)=O)cc21 ) = 80.6

----------
System: Staphylococcus aureus
procedure-details: Antibacterial activity against methicillin resistant Staphylococcus aureus NCTC 10442 by microbroth dilution assay
Format: functional
recorded-metric: MIC

Solved cases (2 shown):
Oc1ccc2c(c1)Nc1ccccc1S2: > 50 µg/mL
COc1ccc2c(c1)Nc1ccccc1S2: > 50 µg/mL

Measured MIC of CCCCCOc1ccc2c(c1)N(CCCCCCNC(=N)N)c1ccccc1S2 : 1.56 µg/mL

Per the record, CCCCCCCOc1ccc2c(c1)N(CCCCNC(=N)N)c1ccccc1S2 has MIC of 0.78 µg/mL

Record summary for CCCCCOc1ccc2c(c1)N(CCCCCCCCNC(=N)N)c1ccccc1S2 : reported MIC = 1.56 µg/mL

// MIC lookup, compound = CCCCCN1c2ccccc2Sc2ccc(OCC(=O)OCC)cc21 , result: > 50 µg/mL

Briefly, MIC measured for CCCCCCCCCOc1ccc2c(c1)Nc1ccccc1S2 : > 50 µg/mL

Notebook: CCCCCOc1ccc2c(c1)N(CCCCCCCCN(CC)CC)c1ccccc1S2 , MIC read as 3.12 µg/mL

GET /value?item= CCOC(=O)COc1ccc2c(c1)Nc1ccccc1S2 &field=MIC returns > 50 µg/mL

Summary for this compound, CC(C)=CCOc1ccc2c(c1)Nc1ccccc1S2 : MIC is > 50 µg/mL

Lab note: CC(C)=CCOc1ccc2c(c1)N(CCCCN)c1ccccc1S2 gave MIC of 6.25 µg/mL

Sample CCCCCCCOc1ccc2c(c1)N(CCCCN)c1ccccc1S2 ; MIC observed: 3.12 µg/mL
